TESTED_ON: His-tagged cynomolgus monkey IGF1R protein (ACRO Biosystems Inc., Cat #: IGR-C5225) (cynomolgus monkey)
ASSAY_COMMENT: SPR (Biacore 8K), antibody captured on Protein A chip, antigen as analyte, 1:1 model
PROPERTY_MEASURED: koff (s⁻¹)
Give your result in s⁻¹ as a bare value.

If you can, please state the reported koff value of anti-IGF1R antibody 12A4 (antibody, V domains shown) VH: EVQLVQSGGGEIRPGGSLRLSCAASGFTFADYGMSWVRQAPGEGLEWVSEIDWTGGSKLYADSVKGRFTISRDNAKNSLFLQMNSLRAEDTALYYCVRDRGAVSPKYYYYGMDVWGQGTTVTVSS VL: EIVLTQSPSSLSASVGDRVTITCRASQGIRNDLGWYQQKPGKAPKRLIYAASRLQSGVPSRFSGSGSGTDFTLTISSLQPEDFATYYCLQHNSYPYTFGQGTKLEIK .
1.05e-05

Query (binder): anti-IGF1R antibody 10G1 (antibody, human IgG1, V domains shown) VH: QVQLVESGGGLVKPGGSLRLSCAASEFTFSDYYMSWIRQSPGKGLEWVSYISNSGSFTNYADSVKGRFTISRDNAKNSLYLQMNSLRAEDSAIYYCVRDQAPVTSKYYYYGMDVWGQGTTVTVSS VL: EIVLTQSPSSLSASVGDRVTITCRASQGIRNDFAWYQQKPGKAPKRLIYAASRLQRGVPSRFSGSGSGTEFTLTISSLQPEDFATYYCLQHNSYPYTFGQGTKLEIK ; field requested: koff
0.000237

Need koff of anti-IGF1R antibody 10D1 (antibody, human IgG1, V domains shown) VH: QVQLQQSGGGVVRPGGSLRLSCAASGFTFADYGMSWVRQVPGKGLEWVSGINWNGGSTDYADSVKGRFTISRDNAKHSLYLQMNSLRAEDTAFYYCARDRGAVSRRYYYYGMDVWGLGTTVTVSS VL: AIQLTQSPSSLSASVGDRVTITCRASQDIRNDLGWYQLKPGKAPKRLIYAASRLQSGVPSGFSGSGSGTEFTLTISSLQPEDFATYYCLQHNSYPYTFGQGTKLEIK , thanks.
1.75e-05

Returns the measured koff for the input binder. Input: anti-IGF1R antibody 12D1 (antibody, human IgG1, V domains shown) VH: QVQLVESGGGVVRPGGSLRLSCAASGFTFDDYGMSWVRQVPGKGLEWVSGINWNGGSTDYADSVKGRFTISREKAKNSLYLQMNSLRAEDTALYYCVRDRGAVTRRYYYYGMDVWGQGTTVTVSS VL: DIQMTQSPSSLSASVGDRVTITCRASQDIRNDLGWYQLKPGKAPKRLIYAASRLQSGVPSRFSGSGSGTEFTLTISSLQPEDFATYYCLQHNSYPYTFGQGTKLEIK
1.8e-05
